- Tested target: T1, HLA-DRB1*0701 (human)
- T1 construct: human MHC class II allotype
- Measurement notes: competitive MHC class II binding assay
Endpoint name: binding result

RNSWDTNWGDNGYG [HDM16A]    no binding
KVLAPAFKKELER [HDM50]    no binding
RTIIQRDNGYQPNY (solubility test: NO) [HDM13]    no binding
